Molecular target: T1, extracellular domain of activin receptor type IIB (ActRIIBecd), biotinylated (Homo sapiens (Human), UniProt Q13705 27-117, amino-biotinylated with amine-PEG3-Biotin)
T1 construct: immobilised on a streptavidin-coated sensor chip; also called biotinylated ActRIIBecd; extracellular domain of ActRIIB
T1 sequence: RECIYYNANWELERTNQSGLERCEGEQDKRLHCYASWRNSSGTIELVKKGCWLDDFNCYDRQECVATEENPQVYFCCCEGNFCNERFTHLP
Assay: BIAcore SPR, biotinylated ActRIIBecd on chip; SD ±14.42 nM
metric_name: Kd (µM)
Numbers only, in µM.

Data request, read-out Kd, for EPLGGARWEAFDVTDAVQSHRRSPRASRKCCLGLRAVTAS [Clone No. 28 domain (ActRIIBecd-associated polypeptide)]
0.0538
